In this section, each of the compounds is paired with its reported pIC50.
targetOrSystem: Procathepsin L (Homo sapiens, UniProt P07711)
assayNotes: Inhibition of recombinant human C-terminal His6-tagged cathepsin L (Glu113 to Val333 and Ala114 to Val333 residues) expressed in mouse myeloma cells using Z-Leu-Arg-AMC as substrate preincubated for 30 mins followed by substrate addition and measured after 30 mins
pIC50: −log10 of the molar value.

So, C=CC(=O)Nc1cc(Oc2nc(Nc3ccc(N4CCN(C)CC4)cc3OC)ccc2N2CCOCC2)ccc1C ? Its pIC50 was < 5.00

So, C=CC(=O)Nc1cc(Oc2nc(Nc3ccc(N4CCN(C)CC4)cc3OC)ccc2N2CCCCC2)ccc1C ? Its pIC50 was 5.00 to 5.52

So, C=CC(=O)Nc1cc(Oc2nc(Nc3ccc(N4CCN(C)CC4)cc3OC)ccc2N2CCCC2)ccc1C ? Its pIC50 was 5.00 to 5.52

====

assayNotes: Bioavailability in C57BL/6 mouse at 10 mg/kg, ip by LC-MS/MS analysis
Type: ADME, organism-based
protocolConditions: in vivo
reportedMetric: bioavailability (%)
Hi! Could you send only the number? It should be in %, unit omitted.

So, C=CC(=O)Nc1cc(Oc2nc(Nc3ccc(N4CCN(C)CC4)cc3OC)ccc2N2CCCCC2)ccc1C ? Its bioavailability was 20.3

====

assayNotes: Intrinsic clearance in rat liver microsomes assessed per mg protein measured after 60 mins in presence of NADPH by LC-MS/MS analysis
Type: ADME, Microsome
protocolConditions: read-out: CLH
reportedMetric: microsomal CLint (µL/min/mg)

Some entries whose results are on file:
{"molecule": "C=CC(=O)Nc1cc(Oc2nc(Nc3ccc(N4CCN(C)CC4)cc3OC)ccc2N2CCCCC2)ccc1C", "microsomal CLint / µL/min/mg": 6.3}
{"molecule": "C=CC(=O)Nc1cc(Oc2nc(Nc3ccc(N4CCN(C)CC4)nc3OC)ccc2N2CCCCC2)ccc1C", "microsomal CLint / µL/min/mg": 13}
{"molecule": "C=CC(=O)Nc1cc(Oc2nc(Nc3ccc(N4CCN(C)CC4)cc3OC)ccc2N2CCCC(O)C2)ccc1C (racemic)", "microsomal CLint / µL/min/mg": 9}

I: C=CC(=O)Nc1cc(Oc2nc(Nc3ccc(N4CCN(C)CC4)cc3OC)ccc2N2CCCC2)ccc1C(F)(F)F
II: C=CC(=O)Nc1cccc(Oc2nc(Nc3ccc(N4CCN(C)CC4)cc3OC)ccc2Cl)c1
III: C=CC(=O)Nc1cc(Oc2nc(Nc3ccc(N4CCN(C)CC4)cc3OC)ccc2N2CCN(C)CC2)ccc1C
IV: C=CC(=O)Nc1cc(Oc2nc(Nc3ccc(N4CCC(N(C)C)CC4)cc3OC)ccc2N2CCCCC2)ccc1C
V: C=CC(=O)Nc1cc(Oc2nc(Nc3ccc(N4CCN(C)CC4)cc3OC)ccc2N2CCCC2)ccc1C
Q) Rank descending by microsomal CLint. Answer by listing the labels in the requested order.
A) II, V, I, IV, III
(II: 39.7 µL/min/mg, V: 23.1 µL/min/mg, I: 11 µL/min/mg, IV: 4.1 µL/min/mg, III: 2 µL/min/mg)

====

assayNotes: AUC infinity in C57BL/6 mouse at 2 mg/kg, iv by LC-MS/MS analysis
Assay type: ADME, organism-based
Set-up: dose 2 mg/kg, time infinity, route intravenous
protocolConditions: in vivo
reportedMetric: AUC(0-inf) (ng·h/mL)
Hi! Could you send only the number? It should be in ng·h/mL, unit omitted.

So, C=CC(=O)Nc1cc(Oc2nc(Nc3ccc(N4CCN(C)CC4)cc3OC)ccc2N2CCCCC2)ccc1C ? Its AUC(0-inf) was 1220

====

assayNotes: AUC infinity in C57BL/6 mouse at 10 mg/kg, ip by LC-MS/MS analysis
Format: ADME, organism-based
Design: dose 10 mg/kg, route intraperitoneal, time infinity
protocolConditions: in vivo
reportedMetric: AUC(0-inf) (ng·h/mL)
Hi! Could you send only the number? It should be in ng·h/mL, unit omitted.

So, C=CC(=O)Nc1cc(Oc2nc(Nc3ccc(N4CCN(C)CC4)cc3OC)ccc2N2CCCCC2)ccc1C ? Its AUC(0-inf) was 1240

====

targetOrSystem: UniProt P53634
assayNotes: Inhibition of cathepsin C in human THP1 cells using H-Gly-Phe-AFC as substrate preincubated for 4 hrs followed by substrate addition and measured after 60 mins
Type: cell-based
reportedMetric: IC50 (nM)

{"compound": "C=CC(=O)Nc1cc(Oc2nc(Nc3ccc(N4CCN(C)CC4)cc3OC)ccc2N2CCCC(O)C2)ccc1C (racemic)", "IC50 (nM)": 4.9}

A: C=CC(=O)Nc1cc(Oc2nc(Nc3ccc(N4CCN(C)CC4)cc3OC)ccc2N2CCCC2)ccc1C(F)(F)F
B: C=CC(=O)Nc1cc(Oc2nc(Nc3ccc(N4CCN(C)CC4)cc3OC)ccc2N2CCC(O)C2)ccc1C (racemic)
Q) Choose between A and B : whose measured IC50 value is numerically larger? # respond with the chosen item's label
A) B

A: C=CC(=O)Nc1cc(Oc2nc(Nc3ccc(N4CCN(C)CC4)cc3OC)ccc2N2CCCC2)ccc1C
B: C=CC(=O)Nc1cc(Oc2nc(Nc3ccc(N4CCN(C)CC4)cc3OC)ccc2N2CCCCC2)ccc1C
C: C=CC(=O)Nc1cc(Oc2nc(Nc3ccc(N4CCN(C)CC4)cc3OC)ccc2N2CCN(C)CC2)ccc1C
D: C=CC(=O)Nc1cc(Oc2nc(Nc3ccc(N4CCC(N(C)C)CC4)cc3OC)ccc2N2CCCCC2)ccc1C
Q) Rank descending by IC50. Answer by listing the labels in the requested order.
A) A, C, B, D
(A: 12.3 nM, C: 2.8 nM, B: 1.9 nM, D: 1 nM)

P: C=CC(=O)Nc1cc(Oc2nc(Nc3ccc(N4CCN(C)CC4)cc3OC)ccc2N2CCCC2)ccc1OC
Q: C=CC(=O)Nc1cc(Oc2nc(Nc3ccc(N4CCN(C)CC4)cc3)ccc2N2CCCCC2)ccc1C
Q) Returns the identifier with the smallest measured IC50 among P and Q . # respond with the chosen item's label
A) Q
(Q: 2.7 nM, P: 21.3 nM)

P: C=CC(=O)Nc1cc(Oc2nc(Nc3ccc(N4CCN(C)CC4)cc3OC)ccc2N2CCCCC2)ccc1C(F)(F)F
Q: C=CC(=O)Nc1cc(Oc2nc(Nc3ccc(N4CCN(C)CC4)nc3OC)ccc2N2CCCCC2)ccc1C
Q) Choose between P and Q : whose measured IC50 value is numerically larger? # respond with the chosen item's label
A) Q

====

assayNotes: AUC infinity in C57BL/6 mouse at 10 mg/kg, po by LC-MS/MS analysis
Assay type: ADME, organism-based
Parameters: dose 10 mg/kg, time infinity, route oral
protocolConditions: in vivo
reportedMetric: AUC(0-inf) (ng·h/mL)
Hi! Could you send only the number? It should be in ng·h/mL, unit omitted.

So, C=CC(=O)Nc1cc(Oc2nc(Nc3ccc(N4CCN(C)CC4)cc3OC)ccc2N2CCCCC2)ccc1C ? Its AUC(0-inf) was 1360

====

targetOrSystem: Dipeptidyl peptidase 1 (Homo sapiens)
assayNotes: Inhibition of cathepsin C in human U937 cells using H-Gly-Phe-AFC as substrate preincubated for 4 hrs followed by substrate addition and measured after 60 mins
Format: cell-based
pIC50: −log10 of the molar value.
reportedMetric: pIC50

1: C=CC(=O)Nc1cc(Oc2nc(Nc3ccc(N4CCN(C)CC4)nc3OC)ccc2N2CCCCC2)ccc1C
2: C=CC(=O)Nc1cc(Oc2nc(Nc3ccc(N4CCN(C)CC4)cc3)ccc2N2CCCCC2)ccc1C
3: C=CC(=O)Nc1cc(Oc2nc(Nc3ccc(N4CCN(C)CC4)cc3OC)ccc2N2CCCC2)ccc1OC
4: C=CC(=O)Nc1cc(Oc2nc(Nc3ccc(N4CCC(N(C)C)CC4)cc3OC)ccc2N2CCCCC2)ccc1C
Q) Parameters: sort_field (pIC50), sort_dir (desc). Answer by listing the labels in the requested order.
A) 4, 2, 1, 3
(4: 8.66, 2: 8.24, 1: 8.00, 3: 7.15)

====

targetOrSystem: Dipeptidyl peptidase 1 (Homo sapiens)
assayNotes: Inhibition of CatL-activated recombinant human C-terminal His10-tagged cathepsin C (25 to 463 residues) expressed in mouse myeloma cells using Gly-Phe-AFC as substrate preincubated for 3 hrs followed by substrate addition and measured after 60 mins
Type: cell-free
reportedMetric: IC50 (nM)

Some entries whose results are on file:
{"compound": "C=CC(=O)Nc1cccc(Oc2nc(Nc3ccc(N4CCNCC4)cc3)ccc2Cl)c1", "resultUnits": "nM", "IC50": 499}
{"compound": "C=CC(=O)Nc1cccc(Oc2nc(Nc3ccc(N4CCN(CC5CC5)CC4)cc3)ccc2Cl)c1", "resultUnits": "nM", "IC50": 783}
{"compound": "C=CC(=O)Nc1cccc(Oc2nc(Nc3ccc(N4CCN(C)CC4)cc3OC)ncc2Cl)c1", "resultUnits": "nM", "IC50": 2100}
{"compound": "C=CC(=O)Nc1cccc(Oc2nc(Nc3ccc(N4CCN(C)CC4)cc3OC)ccc2C#N)c1", "resultUnits": "nM", "IC50": 835}
{"compound": "C=CC(=O)Nc1cc(Oc2nc(Nc3ccc(N4CCC(N(C)C)CC4)cn3)ccc2N2CCCCC2)ccc1C", "resultUnits": "nM", "IC50": 307}

A: C=CC(=O)Nc1cc(Oc2nc(Nc3ccc(N4CCN(C)CC4)cc3OC)ccc2N2CCCC2)ccc1C
B: C=CC(=O)Nc1cc(Oc2nc(Nc3ccc(N4CCN(C(C)=O)CC4)cc3OC)ccc2N2CCCCC2)ccc1C
Q) Returns the identifier with the smallest measured IC50 among A and B . # respond with the chosen item's label
A) A

P: C#Cc1ccc(Nc2ccc(N3CCN(C)CC3)cc2OC)nc1Oc1cccc(NC(=O)C=C)c1
Q: C=CC(=O)Nc1cc(Oc2nc(Nc3ccc(N4CCN(C)CC4)cc3OC)ccc2N2CCCC2)ccc1C(F)(F)F
Q) Choose between P and Q : whose measured IC50 value is numerically larger? # respond with the chosen item's label
A) P

P: C=CC(=O)Nc1cccc(Oc2nc(Nc3ccc(CCN)cc3)ccc2Cl)c1
Q: C=CC(=O)Nc1ccc(C)c(Oc2nc(Nc3ccc(N4CCN(C)CC4)cc3OC)ccc2N2CCCC2)c1
Q) Choose between P and Q : whose measured IC50 value is numerically larger? # respond with the chosen item's label
A) P
(P: 2050 nM, Q: 505 nM)

a: C=CC(=O)Nc1cc(Oc2nc(Nc3ccc(N4CCN(C)CC4)cc3OC)ccc2N2CCN(C)CC2)ccc1C
b: C=CC(=O)Nc1cc(Oc2nc(Nc3ccc(N4CCN(C)CC4)cc3OC)ccc2N2CCCC2)ccc1OC
c: C=CC(=O)Nc1cccc(Oc2nc(Nc3ccc(N4CCN(C)CC4)cc3OC)ccc2N2CCCCC2)c1
Q) Rank ascending by IC50. Answer by listing the labels in the requested order.
A) a, b, c

a: C=CC(=O)Nc1cccc(Oc2nc(Nc3cccc(CN)c3)ccc2Cl)c1
b: C=CC(=O)Nc1cc(Oc2nc(Nc3ccc(N4CCN(C)CC4)cc3OC)ccc2N2CCC(O)C2)ccc1C (racemic)
c: C=CC(=O)Nc1cc(Oc2nc(Nc3ccc(N4CCN(C)CC4)cc3OC)ccc2-c2ccccc2)ccc1C
d: C=CC(=O)Nc1cccc(Oc2nc(Nc3ccc(N4CCN(C)CC4)cc3OC)ccc2Cl)c1
Q) Rank descending by IC50. Answer by listing the labels in the requested order.
A) a, d, c, b
(a: 2150 nM, d: 810 nM, c: 154 nM, b: 32.3 nM)
